biological target: human TLR7 (Homo sapiens, UniProt Q9NYK1); construct: host or cells: HEK293 (HEK-Blue hTLR7); assay: HEK293-Blue hTLR7 Reporter Assay (QUANTI-BLUE, SEAP readout); assay type: cell-based; settings: HEK-Blue-hTLR7 cells, 24 hrs treatment, Table 1, B1-B232
Sequence (Q9NYK1 27-1049): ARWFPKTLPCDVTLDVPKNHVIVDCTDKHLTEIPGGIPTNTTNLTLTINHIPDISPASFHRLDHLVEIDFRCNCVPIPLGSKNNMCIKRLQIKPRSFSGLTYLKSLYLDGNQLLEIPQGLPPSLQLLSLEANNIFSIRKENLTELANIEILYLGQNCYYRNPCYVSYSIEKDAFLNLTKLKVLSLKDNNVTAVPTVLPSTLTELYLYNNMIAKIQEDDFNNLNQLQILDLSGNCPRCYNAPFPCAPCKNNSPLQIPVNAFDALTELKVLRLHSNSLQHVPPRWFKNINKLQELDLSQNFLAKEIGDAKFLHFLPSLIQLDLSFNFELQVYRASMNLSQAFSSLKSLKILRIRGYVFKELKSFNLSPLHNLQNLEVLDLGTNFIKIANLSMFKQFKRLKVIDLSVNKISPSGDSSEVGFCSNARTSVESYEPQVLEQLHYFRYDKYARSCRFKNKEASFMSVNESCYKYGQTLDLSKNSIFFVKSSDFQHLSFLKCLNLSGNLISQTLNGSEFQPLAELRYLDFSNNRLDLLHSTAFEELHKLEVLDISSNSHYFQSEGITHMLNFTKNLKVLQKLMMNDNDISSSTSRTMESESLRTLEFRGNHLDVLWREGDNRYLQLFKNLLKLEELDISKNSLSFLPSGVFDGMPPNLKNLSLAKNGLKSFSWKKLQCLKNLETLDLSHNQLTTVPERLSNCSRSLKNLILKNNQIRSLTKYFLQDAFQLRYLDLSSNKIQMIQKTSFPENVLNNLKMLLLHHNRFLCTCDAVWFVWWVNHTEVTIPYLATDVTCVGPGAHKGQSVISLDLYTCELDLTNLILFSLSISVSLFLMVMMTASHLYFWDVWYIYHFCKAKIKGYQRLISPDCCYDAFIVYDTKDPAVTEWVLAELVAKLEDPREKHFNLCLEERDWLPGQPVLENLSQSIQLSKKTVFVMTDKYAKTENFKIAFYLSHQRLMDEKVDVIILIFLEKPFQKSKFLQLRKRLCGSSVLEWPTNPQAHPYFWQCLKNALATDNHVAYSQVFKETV
measured_attribute: EC50 (nM)

// worked examples, EC50 included
compound: CCCCOc1nc(N)c2ncc(Cc3cnc(N4CCC5(CCNCC5)CC4)c(C)c3)n2n1 [Compound B131]
EC50 / nM: 98
--
compound: CCCC(C)Oc1nc(N)c2ncc(Cc3cnc(N4CCC(CN(C)C)CC4)c(C)c3)n2n1 (centres unmarked) [Compound B134]
EC50 / nM: 6
--
compound: CCCCOc1nc(N)c2ncc(Cc3cnc(N4CCN(CCc5ccccc5)CC4)c(C)c3)n2n1 [Compound B116]
EC50 / nM: 1190

P. CCCCOc1nc(N)c2ncc(Cc3cnc(N4CCC5(CCNC5)CC4)c(C)c3)n2n1 [Compound B82]
Q. CCCCOc1nc(N)c2ncc(Cc3cnc(N4CCC(NC)CC4)c(C)c3)n2n1 [Compound B161]
Hey, between P and Q which has a smaller measured EC50? # reply format: chosen label
Q
